Origin of values: ChEMBL document CHEMBL4513216

assay info: Toxicity liver stage against HepG2, at 10uM
Assay type: cell-based
Parameters: test concentration 10 uM, cell line HepG2-A16-CD81EGFP
condition: human, HepG2-A16-CD81EGFP cells; read-out: INHIBITION
Listing of entries alongside the reported cytotoxicity at 10 µM.

{"molecule": "CCC1CN(C(=O)NCCOc2ccc3c(c2)OCO3)CCO1 (stereo unspecified)", "cytotoxicity at 10 µM": "-4.25%"}
{"molecule": "CCc1nnc2n1CCN(C(=O)CCc1ccc3c(c1)OCO3)C2", "cytotoxicity at 10 µM": "-2.62%"}
{"molecule": "Cn1cnc(NC(=O)C2CC(=O)N(c3cccc(F)c3)C2)n1 (stereo unspecified)", "cytotoxicity at 10 µM": "4.28%"}
{"molecule": "O=C(NCCO)c1coc(Cn2cnc3ccccc32)n1", "cytotoxicity at 10 µM": "-4.48%"}
{"molecule": "CCc1cnc(CNc2cccc3c2CCN(S(=O)(=O)CC)C3)o1", "cytotoxicity at 10 µM": "-52.5%"}
{"molecule": "CCn1nccc1CNC(=O)CCC1CCCC1", "cytotoxicity at 10 µM": "11.4%"}
{"molecule": "COc1ccc(N2CCCC3(C2)CN(c2ncccn2)CCO3)cc1 (stereo unspecified)", "cytotoxicity at 10 µM": "15.3%"}
{"molecule": "CC(=O)c1cccc(OCC(=O)NS(=O)(=O)c2ccc(C)s2)c1", "cytotoxicity at 10 µM": "-8.29%"}
{"molecule": "Cc1cccc(CO[C@@H]2C[C@H]3CN(c4ncccn4)CCN3C2)n1", "cytotoxicity at 10 µM": "1.39%"}
{"molecule": "O=C(c1cccnc1)N1C[C@H]2CC[C@@H](C1)N(Cc1ncc[nH]1)C2", "cytotoxicity at 10 µM": "-13.2%"}
{"molecule": "Cn1cc(C2CCCN2C(=O)c2cnc(-c3ccccn3)s2)cn1 (stereo unspecified)", "cytotoxicity at 10 µM": "-8.1%"}
